Exercise: state measured IC50 for each of the compounds provided.
target: human A2A adenosine receptor (Homo sapiens, UniProt P29274); construct: expressed in transfected cells; host or cells: HEK293 or CHO cells; assay: A2A binding affinity, Method (A): radioligand filtration binding with [3H]SCH58261; conditions: membranes of HEK293 or CHO cells expressing the human receptor
Sequence (P29274 whole entry): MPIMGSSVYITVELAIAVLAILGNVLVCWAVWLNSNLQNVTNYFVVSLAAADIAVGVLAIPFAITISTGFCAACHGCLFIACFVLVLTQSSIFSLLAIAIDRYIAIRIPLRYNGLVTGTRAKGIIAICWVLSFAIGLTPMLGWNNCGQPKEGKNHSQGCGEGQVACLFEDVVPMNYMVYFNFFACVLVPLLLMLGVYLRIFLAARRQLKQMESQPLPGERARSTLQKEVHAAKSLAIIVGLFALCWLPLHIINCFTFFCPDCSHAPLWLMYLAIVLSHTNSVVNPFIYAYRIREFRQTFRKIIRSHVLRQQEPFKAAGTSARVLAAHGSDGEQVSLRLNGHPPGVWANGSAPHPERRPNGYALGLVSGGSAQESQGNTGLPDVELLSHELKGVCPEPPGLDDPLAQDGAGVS
Give the quantity in nM, number only.

Query: Quick one: IC50 of COc1cccc2c1nc(N)n1nc(CNC(=O)c3ncc(C(C)(C)O)cc3Br)nc21 [Example 4.11] ?
Result: 1.5

Query: Quick one: IC50 of COc1cc(F)cc2c1nc(N)n1nc(CNCc3ccc(S(N)(=O)=O)cc3)nc21 [Example 11.11] ?
Result: 2.1

Query: Quick one: IC50 of COc1cc(F)cc2c1nc(N)n1nc(CNC(c3ccc(C(C)(C)O)cc3)C(F)(F)F)nc21 (single isomer, unassigned) [Example 25.3B] ?
Result: 29.2

Query: Quick one: IC50 of COc1cccc2c1nc(N)n1nc(CN3CC(n4cccn4)C3)nc21 [Example 11.12] ?
Result: 3.7

Query: Quick one: IC50 of COc1cccc2c1nc(N)n1nc(CCN(C)c3cnn(C)c3)nc21 [Example 24.4] ?
Result: 0.9

Query: Quick one: IC50 of COc1cc(F)cc2c1nc(N)n1nc(CNCc3ccc(C(O)(C(F)F)C(F)F)cc3)nc21 [Example 11.6] ?
Result: 0.3

Query: Quick one: IC50 of COc1cccc2c1nc(N)n1nc(CNCc3cnn(C)c3)nc21 [Example 11.3] ?
Result: 0.1

Query: Quick one: IC50 of COc1cccc2c1nc(N)n1nc(CN(C)Cc3ccc(S(N)(=O)=O)cc3)nc21 [Example 9.2] ?
Result: 2.5

Query: Quick one: IC50 of COc1cc(F)cc2c1nc(N)n1nc(CNC(=O)c3ccc(C(C)(C)O)cc3Cl)nc21 [Entry 3.5] ?
Result: 2.5

Query: Quick one: IC50 of COc1cccc2c1nc(N)n1nc(CN(C)C(=O)c3ccc(C(C)(C)O)cc3)nc21 [Example 1.2] ?
Result: 0.3

Query: Quick one: IC50 of COc1cc(F)cc2c1nc(N)n1nc(CNCc3ccc(C(O)C(F)(F)F)cc3)nc21 (single isomer, unassigned) [Example 11.7B] ?
Result: 0.5

Query: Quick one: IC50 of COc1cc2nc(N)n3nc(CCNc4cnn(CC(C)(C)O)c4)nc3c2cc1F [Example 24.2] ?
Result: 26.5

Query: Quick one: IC50 of COc1cccc2c1nc(N)n1nc(CNC(=O)c3ccc(S(N)(=O)=O)cc3)nc21 [Example 4.10] ?
Result: 636

Query: Quick one: IC50 of COc1cc(F)cc2c1nc(N)n1nc(CNC(=O)c3c(F)cc(C(C)(C)O)cc3F)nc21 [Example 3.4] ?
Result: 11.1

Query: Quick one: IC50 of COc1cc(F)cc2c1nc(N)n1nc(CNCc3ccc(C(C)(C)O)cc3)nc21 [Example 11.4] ?
Result: 0.1

Query: Quick one: IC50 of COc1cc(F)cc2c1nc(N)n1nc(CNCc3ccc(C(C)(O)C(F)(F)F)cc3)nc21 (single isomer, unassigned) [Example 11.8A] ?
Result: 0.8

Query: Quick one: IC50 of COc1cccc2c1nc(N)n1nc(CNC3CCc4c(nnn4C4CC(F)(F)C4)C3)nc21 (single isomer, unassigned) [Example 11.2A] ?
Result: 0.6

Query: Quick one: IC50 of COc1cccc2c1nc(N)n1nc(CNC3CCc4c(nnn4C4CC(F)(F)C4)C3)nc21 (single isomer, unassigned) [Example 11.2B] ?
Result: 3.4

Query: Quick one: IC50 of COc1cc(F)cc2c1nc(N)n1nc(CCN3Cc4cnc(C(C)C)n4CC3=O)nc21 [Example 26.3] ?
Result: 6.4

Query: Quick one: IC50 of COc1cccc2c1nc(N)n1nc(CN3CC(c4ccncc4)C3)nc21 [Example 11.14] ?
Result: 9.1

Query: Quick one: IC50 of COc1cccc2c1nc(N)n1nc(CNCc3ccc(S(N)(=O)=O)cc3)nc21 [Example 11.10] ?
Result: 1.4

Query: Quick one: IC50 of COc1cc(F)cc2c1nc(N)n1nc(CNCc3ccc(C(O)(C(F)(F)F)C(F)(F)F)cc3)nc21 [Example 11.5] ?
Result: 0.2

Query: Quick one: IC50 of COc1cccc2c1nc(N)n1nc(CN3CCO[C@@H](Cc4ccccc4)C3)nc21 [Example 8.1] ?
Result: 6

Query: Quick one: IC50 of COc1cc(F)cc2c1nc(N)n1nc(CNC(C)(C)c3ccc(C(C)(C)O)cc3)nc21 [Example 11.9] ?
Result: 1.1
